# TARGET OF ASSAY: TYK2 JH2 (Homo sapiens)
# Construct: purchased DiscoverX (KINOMEscan KdELECT service); host or cells: E. coli BL21-derived (T7 phage display) or HEK-293
# Sequence (P29597 589-875 limits assumed): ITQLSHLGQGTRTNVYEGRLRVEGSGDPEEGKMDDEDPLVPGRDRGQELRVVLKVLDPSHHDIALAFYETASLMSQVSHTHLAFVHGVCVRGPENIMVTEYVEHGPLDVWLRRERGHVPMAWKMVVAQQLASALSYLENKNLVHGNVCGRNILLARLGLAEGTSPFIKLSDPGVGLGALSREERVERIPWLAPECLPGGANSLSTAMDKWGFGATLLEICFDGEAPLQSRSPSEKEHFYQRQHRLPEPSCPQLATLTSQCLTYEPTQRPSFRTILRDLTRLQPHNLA
# TEST PROTOCOL: TYK2 JH2 binding assay (KINOMEscan KdELECT competitive binding)
# CONDITION CONTEXT: TYK2 JH2 domain, KINOMEscan KdELECT (Assay A); read-out: Biochemical TYK2_JH2_Kd
Structures can show the parent of a compound that is named as a salt.

>  <MOLECULE>
CNc1ncc(-c2ccc(C(=O)C3CC3)cc2)c2cc(NC(=O)C3CC3)ncc12 [Example 144]

>  <Kd>
≤ 100 nM

$$$$
>  <MOLECULE>
CCc1cnc(NC)c2cnc(NC(=O)C3CC3)cc12 [Example 72]

>  <Kd>
≤ 100 nM

$$$$
>  <MOLECULE>
CNc1ncc(-c2cnn(CC(F)(F)F)c2)c2cc(NC(=O)C3CC3)ncc12 [Example 38]

>  <Kd>
≤ 100 nM

$$$$
>  <MOLECULE>
CNc1ncc(N2CCCCC2)c2cc(NC(=O)C3CC3)ncc12 [Example 56]

>  <Kd>
≤ 100 nM

$$$$
>  <MOLECULE>
CNc1ncc(C(C)C)c2cc(NC(=O)C3CC3)ncc12 [Example 74]

>  <Kd>
≤ 100 nM

$$$$
>  <MOLECULE>
CNc1ncc(-c2nc3ccccc3s2)c2cc(NC(=O)C3CC3)ncc12 [Example 145]

>  <Kd>
≤ 100 nM

$$$$
>  <MOLECULE>
CNc1ncc(-c2nc3cccc(F)n3n2)c2cc(NC(=O)C3CC3)ncc12 [Example 192]

>  <Kd>
≤ 100 nM

$$$$
>  <MOLECULE>
CNc1ncc(-c2ccn(Cc3nccs3)n2)c2cc(NC(=O)C3CC3)ncc12 [Example 151]

>  <Kd>
≤ 100 nM

$$$$
>  <MOLECULE>
CNc1ncc(-c2cnn(CCOC)c2)c2cc(NC(=O)C3CC3)ncc12 [Example 115]

>  <Kd>
≤ 100 nM

$$$$
>  <MOLECULE>
CNc1ncc(-c2ccc(C(F)(F)F)cc2)c2cc(NC(=O)C3CC3)ncc12 [Example 109]

>  <Kd>
≤ 100 nM

$$$$
>  <MOLECULE>
CNc1ncc(-c2ccccc2)c2cc(NC(C)=O)ncc12 [Example 90]

>  <Kd>
≤ 100 nM

$$$$
>  <MOLECULE>
CNc1ncc(-c2ncc(C)s2)c2cc(NC(=O)C3CC3)ncc12 [Example 66]

>  <Kd>
≤ 100 nM

$$$$
>  <MOLECULE>
CNc1ncc(-c2ccc3c(c2)OCO3)c2cc(NC(=O)C3CC3)ncc12 [Example 21]

>  <Kd>
≤ 100 nM

$$$$
>  <MOLECULE>
CNc1ncc(-c2ccc(OC(F)(F)F)cc2)c2cc(NC(=O)C3CC3)ncc12 [Example 110]

>  <Kd>
≤ 100 nM

$$$$
>  <MOLECULE>
CNc1ncc(N2Cc3cnccc3C2=O)c2cc(NC(=O)C3CC3)ncc12 [Example 59]

>  <Kd>
1000 to 10000 nM

$$$$
>  <MOLECULE>
CNc1ncc(-c2nc3ccccn3n2)c2cc(NC(=O)C3CC3)ncc12 [Example 155]

>  <Kd>
≤ 100 nM

$$$$
>  <MOLECULE>
CNc1ncc(CC(F)(F)F)c2cc(NC(=O)C3CC3)ncc12 [Example 88]

>  <Kd>
≤ 100 nM

$$$$
>  <MOLECULE>
CNc1ncc(-c2ccn[nH]2)c2cc(NC(=O)C3CC3)ncc12 [Example 52]

>  <Kd>
≤ 100 nM

$$$$
>  <MOLECULE>
CNc1ncc(-c2ccc(OC)cc2)c2cc(NC(=O)C3CC3)ncc12 [Example 13, formate]

>  <Kd>
≤ 100 nM

$$$$
>  <MOLECULE>
CCC(=O)c1cnc(NC)c2cnc(NC(=O)C3CC3)cc12 [Example 128]

>  <Kd>
≤ 100 nM

$$$$
>  <MOLECULE>
CNc1ncc(-c2ccccc2C)c2cc(NC(=O)C3CC3)ncc12 [Example 35]

>  <Kd>
≤ 100 nM

$$$$
>  <MOLECULE>
C=C(c1ccc(OC)cc1)c1cnc(NC)c2cnc(NC(=O)C3CC3)cc12 [Example 136]

>  <Kd>
100 to 1000 nM

$$$$
>  <MOLECULE>
CNc1ncc(CCc2ccccc2)c2cc(NC(=O)C3CC3)ncc12 [Example 31]

>  <Kd>
≤ 100 nM

$$$$
>  <MOLECULE>
CNc1ncc(/C=C/c2ccccc2)c2cc(NC(=O)C3CC3)ncc12 [Example 33]

>  <Kd>
≤ 100 nM

$$$$
>  <MOLECULE>
CNc1ncc(-c2ccccc2)c2cc(NCC(F)(F)F)ncc12 [Example 94]

>  <Kd>
100 to 1000 nM

$$$$
>  <MOLECULE>
CNc1ncc(-c2ccc(OCC(F)(F)F)cc2)c2cc(NC(=O)C3CC3)ncc12 [Example 111]

>  <Kd>
≤ 100 nM

$$$$
>  <MOLECULE>
CNc1ncc(-c2ccc(C)o2)c2cc(NC(=O)C3CC3)ncc12 [Example 143]

>  <Kd>
≤ 100 nM

$$$$
>  <MOLECULE>
CNc1ncc(C2=CCOCC2)c2cc(NC(=O)C3CC3)ncc12 [Example 67]

>  <Kd>
≤ 100 nM

$$$$
>  <MOLECULE>
CNc1ncc(-c2cscn2)c2cc(NC(=O)C3CC3)ncc12 [Example 65]

>  <Kd>
≤ 100 nM

$$$$
>  <MOLECULE>
CNc1ncc(-c2cccc(COCCOC)c2)c2cc(NC(=O)C3CC3)ncc12 [Example 172]

>  <Kd>
≤ 100 nM

$$$$
>  <MOLECULE>
CNc1ncc(C#Cc2ccccc2)c2cc(NC(=O)C3CC3)ncc12 [Example 137]

>  <Kd>
≤ 100 nM

$$$$
>  <MOLECULE>
CNc1ncc(N2CCCC2)c2cc(NC(=O)C3CC3)ncc12 [Example 55]

>  <Kd>
≤ 100 nM

$$$$
>  <MOLECULE>
CNc1ncc(-c2nc3cccc(F)c3o2)c2cc(NC(=O)C3CC3)ncc12 [Example 185]

>  <Kd>
≤ 100 nM

$$$$
>  <MOLECULE>
CNc1ncc(-c2ccnn2C)c2cc(NC(=O)C3CC3)ncc12 [Example 6]

>  <Kd>
≤ 100 nM

$$$$
>  <MOLECULE>
CNc1ncc(-c2ccnn2C2CCCCO2)c2cc(NC(=O)C3CC3)ncc12 (stereo not shown) [Example 51]

>  <Kd>
1000 to 10000 nM

$$$$
>  <MOLECULE>
CNc1ncc(C2=CCCCC2)c2cc(NC(=O)C3CC3)ncc12 [Example 69]

>  <Kd>
≤ 100 nM

$$$$
>  <MOLECULE>
CNc1ncc(-c2ccccc2)c2cc(NCc3ccccn3)ncc12 [Example 100]

>  <Kd>
1000 to 10000 nM

$$$$
